- procedure-text: chemical genetic growth profiling, strain panel (AID 1159580);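 also: tested at 20 µM; growth read once vehicle control cultures reached saturation at 30 °C; 1 = growth at the plate median or of vehicle wells; lower values mean less growth of the strain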
- settings: S. cerevisiae deletion strains, growth OD, locus YBL061C, strain skt5, hits give low values
The whole screen tested about 5,500 compounds, of which about 2,000 (36%) were called active. About 18% were inconclusive and are not listed. Some of the results follow.
metric-name: normalized growth
Answer using only a numeral; do not append any unit.

// query Supply normalized growth value. Item: CN[C@@H]1[C@@H](O[C@H]2O[C@H](CO)[C@@H](N)[C@H](O)[C@H]2O)O[C@H]2C[C@@H](N)[C@H](O[C@H]3[C@H](O)[C@@H](O)[C@H](N)C[C@@H]3N)O[C@@H]2[C@@H]1O
// result 1

// query Could you please provide reported normalized growth for CC(=O)Oc1ccccc1C(=O)O ? Thanks!
// result 0.989

// query Hello, please tell me recorded normalized growth for this one: CC(=O)O[C@H]1CC[C@]2(C)C3CC(=O)[C@]4(C)C(C(C)=O)=CCC4C3CC[C@H]2C1 (stereo partly drawn)
// result 0.994

// query Report measured normalized growth; entry is CC1(C)S[C@@H]2[C@H](NC(=O)[C@H](C(=O)O)c3cccs3)C(=O)N2[C@H]1C(=O)O
// result 1.01

// query Recall and state the measured normalized growth for CN1CCN(CCCN2c3ccccc3Sc3ccc(C(F)(F)F)cc32)CC1 .
// result 0.0653

// query Output normalized growth of CC(=O)OCC1=C(C(=O)O)N2C(=O)[C@@H](NC(=O)CCCC(N)C(=O)O)C2SC1 (stereo partly drawn)
// result 0.997

// query Provide measured normalized growth value, entry: COc1ccc(C2C(=O)c3ccccc3C2=O)cc1
// result 1.01

// query Respond only with normalized growth recorded for CN1CCN(CC(=O)N2c3ccccc3C(=O)Nc3cccnc32)CC1
// result 1.01

// query Specify reported normalized growth for the compound shown: COc1cnc(NS(=O)(=O)c2ccc(N)cc2)nc1
// result 0.994

// query Please give the documented normalized growth of COc1cccc(OC)c1C(=O)N[C@@H]1C(=O)N2[C@@H]1SC(C)(C)[C@@H]2C(=O)O
// result 0.998

// query Read off the recorded normalized growth for Cc1onc(-c2c(Cl)cccc2Cl)c1C(=O)N[C@@H]1C(=O)N2[C@@H]1SC(C)(C)[C@@H]2C(=O)O
// result 0.991

// query Consider the compound COc1cc(-c2oc3cc(O)ccc3c(=O)c2O)ccc1O and give its recorded normalized growth.
// result 0.926

// query # return recorded normalized growth for input O=C(OC[C@H]1O[C@H](OC(=O)c2cc(O)c(O)c(OC(=O)c3cc(O)c(O)c(O)c3)c2)[C@H](OC(=O)c2cc(O)c(O)c(OC(=O)c3cc(O)c(O)c(O)c3)c2)[C@@H](OC(=O)c2cc(O)c(O)c(OC(=O)c3cc(O)c(O)c(O)c3)c2)[C@@H]1OC(=O)c1cc(O)c(O)c(OC(=O)c2cc(O)c(O)c(O)c2)c1)c1cc(O)c(O)c(OC(=O)c2cc(O)c(O)c(O)c2)c1
// result 0.68

// query Provide one value: measured normalized growth of CC(=O)O[C@@H]1CC[C@]2(C)C3CC[C@]4(C)C(=O)CCC4C3CC[C@H]2C1 (stereo partly drawn)
// result 0.988

// query For the compound COc1cc(NS(=O)(=O)c2ccc(N)cc2)ncn1 , report normalized growth.
// result 0.987

// query Please look at this compound and report its normalized growth: CC1=CC2C(C(C)C)CCC(C)(O)C2CC1 (stereo not drawn)
// result 0.991

// query Write down normalized growth measured for item CC(=O)O[C@H]1CC[C@]2(C)C3CC[C@@]4(C)C(CC5O[C@@]6(CCC(C)CO6)[C@@H](C)C54)C3CC[C@@H]2C1 (stereo partly drawn)
// result 1.01

// query # return recorded normalized growth for entry COc1ccc([C@H]2COc3c(ccc(O)c3OC)C2)c(OC)c1O
// result 0.989

Values compiled from PubChem BioAssay AID1159580.
